Tested on: human melanoma cell A375 (BRAF-V600E mutation)
Experiment: Cancer cell proliferation inhibition assay, A375
Format: cell-based
Conditions: A-375, 72 h incubation, Cell Titer Glo
The entries below come with measured IC50 values attached.
measured.parameter: IC50 (nM)

>>> numeric_readout("COc1ccc(Nc2nccc3c(NC(=O)c4cnc5c(N)ncnn45)c(C)ccc23)cc1Cl [Compound 56]")
67
>>> numeric_readout("Cc1ccc2c(Nc3cc(F)c(F)cc3F)nccc2c1NC(=O)c1cccc2c(N)ncnc12 [Compound 90]")
74
>>> numeric_readout("CC(=O)c1ccc(Nc2nccc3c(NC(=O)c4cccc5c(N)ncnc45)c(C)ccc23)cc1 [Compound 63]")
46.3
>>> numeric_readout("COc1ccc(F)c(Nc2nccc3c(NC(=O)c4cccc5c(N)ncnc45)c(C)ccc23)c1 [Compound 87]")
56
>>> numeric_readout("Cc1ccc2c(Nc3ccc(Cl)cc3F)nccc2c1NC(=O)c1cccc2c(N)ncnc12 [Compound 41]")
22.2
>>> numeric_readout("Cc1ccc2c(C(O)c3cccc(C(F)(F)F)c3)nccc2c1NC(=O)c1csc2c(N)ncnc12 (centres unmarked) [Compound 23]")
64.7
>>> numeric_readout("Cc1ccc2c(Nc3cccc(Cl)c3)nccc2c1NC(=O)c1cccc2c(N)ncnc12 [Compound 38]")
96.7
>>> numeric_readout("Cc1ccc2c(Nc3cc(Cl)ccc3F)nccc2c1NC(=O)c1cccc2c(N)ncnc12 [Compound 73]")
109
>>> numeric_readout("COc1ccc(Nc2nccc3c(NC(=O)c4cccc5c(N)ncnc45)c(C)ccc23)c(F)c1 [Compound 60]")
28
>>> numeric_readout("Cc1ccc2c(Nc3cccc(C(F)(F)F)c3)nccc2c1NC(=O)c1cnc2c(N)ncnn12 [Compound 43]")
61.7
>>> numeric_readout("COc1ccc(Nc2nccc3c(NC(=O)c4cccc5c(N)ncnc45)c(C)ccc23)cn1 [Compound 75]")
67.7
>>> numeric_readout("Cc1ccc2c(Nc3ccc(C#N)cc3F)nccc2c1NC(=O)c1cccc2c(N)ncnc12 [Compound 78]")
63.5
>>> numeric_readout("Cc1ccc2c(Nc3cccc(Cl)c3F)nccc2c1NC(=O)c1cc(F)cc2c(N)ncnc12 [Compound 46]")
89.3
>>> numeric_readout("COc1ccc(Nc2nccc3c(NC(=O)c4cccc5c(N)ncnc45)c(C)ccc23)cc1 [Compound 57]")
66.1
>>> numeric_readout("Cc1ccc2c(C(O)c3ccc(Cl)cc3F)nccc2c1NC(=O)c1csc2c(N)ncnc12 (centres unmarked) [Compound 28]")
98.8
>>> numeric_readout("Cc1ccc2c(Nc3cccc(Cl)c3F)nccc2c1NC(=O)c1cc(OCCN2CCOCC2)cc2c(N)ncnc12 [Compound 79]")
72.2
>>> numeric_readout("Cc1ccc2c(Nc3ccc4c(c3)CN(C)CC4)nccc2c1NC(=O)c1cccc2c(N)ncnc12 [Compound 82]")
141
>>> numeric_readout("Cc1ccc(Nc2nccc3c(NC(=O)c4cccc5c(N)ncnc45)c(C)ccc23)cc1 [Compound 65]")
47.1
>>> numeric_readout("Cc1ccc2c(Cc3cccc(C(F)(F)F)c3)nccc2c1NC(=O)c1csc2c(N)ncnc12 [Compound 19]")
163
>>> numeric_readout("Cc1ccc2c(Nc3ccc4c(c3)OCCO4)nccc2c1NC(=O)c1cccc2c(N)ncnc12 [Compound 77]")
31.6
>>> numeric_readout("Cc1ccc2c(Nc3cccc(Cl)c3F)nccc2c1NC(=O)c1cc(N2CCN(C)CC2)cc2c(N)ncnc12 [Compound 54]")
108
>>> numeric_readout("Cc1ccc2c(Nc3cccc(Cl)c3F)nccc2c1NC(=O)c1cc(O)cc2c(N)ncnc12 [Compound 76]")
202
>>> numeric_readout("Cc1cc(C(=O)Nc2c(C)ccc3c(Nc4cccc(Cl)c4F)nccc23)c2ncnc(N)c2c1 [Compound 45]")
74.2
>>> numeric_readout("COc1ccc(Nc2nccc3c(NC(=O)c4cnc5c(N)ncnn45)c(C)ccc23)c(F)c1 [Compound 61]")
141
>>> numeric_readout("Cc1ccc2c(Nc3cccc(Cl)c3F)nccc2c1NC(=O)c1cc(N2CCOCC2)cc2c(N)ncnc12 [Compound 53]")
77.7
>>> numeric_readout("Cc1ccc2c(Nc3cccc(Cl)c3F)nccc2c1NC(=O)c1cnc2c(N)ncnn12 [Compound 30]")
89.3
>>> numeric_readout("CCOc1ccc(Nc2nccc3c(NC(=O)c4cccc5c(N)ncnc45)c(C)ccc23)c(F)c1 [Compound 74]")
62.7
>>> numeric_readout("Cc1ccc2c(Nc3cccc(Cl)c3F)nccc2c1NC(=O)c1ccc(F)c2c(N)ncnc12 [Compound 93]")
61.7
>>> numeric_readout("Cc1ccc2c(Nc3cccc(Cl)c3F)nccc2c1NC(=O)c1cccc2c(N)ncnc12 [Compound 1]")
29.3
>>> numeric_readout("Cc1ccc2c(Nc3cccc(Cl)c3F)nccc2c1NC(=O)c1cncc2c(N)ncnc12 [Compound 69]")
94.6
>>> numeric_readout("Cc1ccc(Nc2nccc3c(NC(=O)c4cccc5c(N)ncnc45)c(C)ccc23)c(F)c1 [Compound 88]")
55.4
>>> numeric_readout("Cc1ccc2c(Nc3cc(S(C)(=O)=O)ccc3F)nccc2c1NC(=O)c1cccc2c(N)ncnc12 [Compound 89]")
111

The reported measurements were obtained from patent US20230312556A1.
